# ASSAY PROCEDURE: in vitro
# SETTINGS: African green monkey
PARAMETER MEASURED: CC50 (µg/mL)
Your answer is read as µg/mL, so omit the unit and give the number.

Query: What value of measured CC50 is listed for NC(=O)c1ncn([C@@H]2O[C@H](CO)[C@@H](O)[C@H]2O)n1 ?
Result: 560

----------
# ASSAY PROCEDURE: in vitro
# SETTINGS: African green monkey
PARAMETER MEASURED: CC50

Query: What value of measured CC50 is listed for NC(=O)c1ncn([C@@H]2O[C@H](CO)[C@@H](O)[C@H]2O)n1 [Ribavirin, ribavirin] ?
Result: > 100 µg/mL

----------
# ASSAY PROCEDURE: in vitro
# SETTINGS: African green monkey
PARAMETER MEASURED: CC50

Query: What value of measured CC50 is listed for Nc1ccn(C[C@@H](CO)OCP(=O)(O)O)c(=O)n1 [HPMPC, cidofovir] ?
Result: > 100 µg/mL

Hello, the source for this data is patent US20030203410A1, in case you need it.
